assay: Volume of distribution in normal weight human at 236 mg infused over 30 mins; assay type: ADME, organism-based; settings: in vivo, iv
EXPERIMENTAL ENDPOINT: Vd (L)
One number for each entry, in L.

(Q) What value of Vd has been reported for the following molecule? CCCCCCCCCC(=O)N[C@@H](Cc1c[nH]c2ccccc12)C(=O)N[C@H](CC(N)=O)C(=O)N[C@@H](CC(=O)O)C(=O)N[C@@H]1C(=O)NCC(=O)N[C@@H](CCCN)C(=O)N[C@@H](CC(=O)O)C(=O)N[C@H](C)C(=O)N[C@@H](CC(=O)O)C(=O)NCC(=O)N[C@H](CO)C(=O)N[C@@H]([C@H](C)CC(=O)O)C(=O)N[C@@H](CC(=O)c2ccccc2N)C(=O)O[C@@H]1C
(A) 7.69

====

test: Renal clearance per kg of ideal body weight in morbidly obese human at 461 mg infused over 30 mins; assay type: ADME, organism-based, Kidney; details: in vivo, iv, read-out: CL_renal (converted)
EXPERIMENTAL ENDPOINT: CL renal at 0.5 h (mL/min)
Answers are plain numbers, in mL/min.

(Q) What value of CL renal at 0.5 h has been reported for the following compound? CCCCCCCCCC(=O)N[C@@H](Cc1c[nH]c2ccccc12)C(=O)N[C@H](CC(N)=O)C(=O)N[C@@H](CC(=O)O)C(=O)N[C@@H]1C(=O)NCC(=O)N[C@@H](CCCN)C(=O)N[C@@H](CC(=O)O)C(=O)N[C@H](C)C(=O)N[C@@H](CC(=O)O)C(=O)NCC(=O)N[C@H](CO)C(=O)N[C@@H]([C@H](C)CC(=O)O)C(=O)N[C@@H](CC(=O)c2ccccc2N)C(=O)O[C@@H]1C
(A) 0.16

====

assay: Volume of distribution in morbidly obese human at 461 mg infused over 30 mins; type: ADME, organism-based; details: in vivo, iv
EXPERIMENTAL ENDPOINT: Vd (L)
One number for each entry, in L.

(Q) What value of Vd has been reported for the following compound? CCCCCCCCCC(=O)N[C@@H](Cc1c[nH]c2ccccc12)C(=O)N[C@H](CC(N)=O)C(=O)N[C@@H](CC(=O)O)C(=O)N[C@@H]1C(=O)NCC(=O)N[C@@H](CCCN)C(=O)N[C@@H](CC(=O)O)C(=O)N[C@H](C)C(=O)N[C@@H](CC(=O)O)C(=O)NCC(=O)N[C@H](CO)C(=O)N[C@@H]([C@H](C)CC(=O)O)C(=O)N[C@@H](CC(=O)c2ccccc2N)C(=O)O[C@@H]1C
(A) 10

====

assay: Cmax in human at 4 mg/kg of total body weight; format: ADME, organism-based; design: dose 4 mg/kg; settings: in vivo
EXPERIMENTAL ENDPOINT: Cmax

(Q) What value of Cmax has been reported for the following compound? CCCCCCCCCC(=O)N[C@@H](Cc1c[nH]c2ccccc12)C(=O)N[C@H](CC(N)=O)C(=O)N[C@@H](CC(=O)O)C(=O)N[C@@H]1C(=O)NCC(=O)N[C@@H](CCCN)C(=O)N[C@@H](CC(=O)O)C(=O)N[C@H](C)C(=O)N[C@@H](CC(=O)O)C(=O)NCC(=O)N[C@H](CO)C(=O)N[C@@H]([C@H](C)CC(=O)O)C(=O)N[C@@H](CC(=O)c2ccccc2N)C(=O)O[C@@H]1C
(A) 42300 ng/mL
